target-system: T1, rhNav1.7α + β1-β2-β3 (rhesus Nav1.7α co-expressed with Navβ1, Navβ2 and Navβ3 on cells) (rhesus monkey (α subunit); β subunits …)
T1 construct: also called rhNav1.7-beta1-beta2-beta3; CHO FlpIn rhNav1.7α + β1-β2-β3
protocol-details: binding FACS, CHO FlpIn cells
Please go through the items and note down their EC50.
Hi! Could you send only the number? It should be in nM, unit omitted.

Request: Which EC50 reading was recorded for the binder F010302370 (VHH, also called F0103387G04(L11V, A12V, K33R, R39Q, S50Y, S56D, T60A, G73R, W78V, S79Y, T83R, V89L, N93R, D99S, N100cI)) VHH: EVQLVESGGGVVQPGGSLRLSCAASGPVFNINRMAWYRQAPGKQRELVAYVTPTGDISYADSVKGRFTISRDRSKRVYLQMNSLRPEDTALYYCRALLQPSSYSITRTYWGQGTLVTVSS ?
Result: 7.3

Request: Follow-up item: F010301847 (VHH, also called F0103387G04(L11V, A12V, K33R, R39Q, S50Y, S56D, T60A, G73N, R76N, W78V, S79Y, T83R, V89L, N93R)) VHH: EVQLVESGGGVVQPGGSLRLSCAASGPVFNINRMAWYRQAPGKQRELVAYVTPTGDISYADSVKGRFTISRDNSKNVYLQMNSLRPEDTALYYCRALLQPDSYSNTRTYWGQGTLVTVSS
Result: 29

Request: Follow-up item: F010301845 (VHH, also called F0103387G04(L11V, A12V, K33R, R39Q, S50Y, S56D, W78V, T83R, V89L, N93R)) VHH: EVQLVESGGGVVQPGGSLRLSCAASGPVFNINRMAWYRQAPGKQRELVAYVTPTGDISYTDSVKGRFTISRDGSKRVSLQMNSLRPEDTALYYCRALLQPDSYSNTRTYWGQGTLVTVSS
Result: 8

Request: Follow-up item: F010302315 (VHH, also called F0103387G04(L11V, A12V, K33R, R39Q, S50Y, S56D, T60A, W78V, S79Y, T83R, V89L, N93R, D99R, N100cI)) VHH: EVQLVESGGGVVQPGGSLRLSCAASGPVFNINRMAWYRQAPGKQRELVAYVTPTGDISYADSVKGRFTISRDGSKRVYLQMNSLRPEDTALYYCRALLQPRSYSITRTYWGQGTLVTVSS
Result: 39
